molecular target: AChE (Homo sapiens); experiment: biochemical; details: 62.5 μg/ml
Sequence (P22303 32-614): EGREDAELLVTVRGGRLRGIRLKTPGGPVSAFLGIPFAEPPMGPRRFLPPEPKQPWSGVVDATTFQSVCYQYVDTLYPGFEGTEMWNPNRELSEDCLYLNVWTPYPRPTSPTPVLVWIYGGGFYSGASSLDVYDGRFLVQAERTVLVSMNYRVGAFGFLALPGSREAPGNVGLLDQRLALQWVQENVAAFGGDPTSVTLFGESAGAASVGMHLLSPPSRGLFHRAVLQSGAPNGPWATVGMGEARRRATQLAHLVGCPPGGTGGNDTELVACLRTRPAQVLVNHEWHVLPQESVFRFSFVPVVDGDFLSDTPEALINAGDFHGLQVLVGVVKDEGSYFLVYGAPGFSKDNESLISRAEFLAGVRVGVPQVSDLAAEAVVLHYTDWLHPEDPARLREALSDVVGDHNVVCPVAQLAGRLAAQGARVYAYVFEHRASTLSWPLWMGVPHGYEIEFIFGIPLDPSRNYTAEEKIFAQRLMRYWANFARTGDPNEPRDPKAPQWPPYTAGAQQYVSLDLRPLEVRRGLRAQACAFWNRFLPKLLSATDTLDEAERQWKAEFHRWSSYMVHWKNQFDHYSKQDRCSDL
Recorded Endpoint: inhibition at 62.5 µg/mL (%)
Give just the number in %; leave the unit off.

Consider the following illustrative entries.
C=C(C)[C@@H]1CC[C@]2(CO)CC[C@]3(C)[C@H](CC[C@@H]4[C@@]5(C)CC[C@H](O)C(C)(C)[C@@H]5CC[C@]43C)[C@@H]12 [Compound 6, 3β, 28-Dihydroxylup-20(29)-ene]    84
CCC(CCC(C)C1CCC2C3CC=C4CC(OC5OC(CO)C(O)C(O)C5O)CCC4(C)C3CCC12C)C(C)C [Compound 3, β-Sitosterol-3-O-β-D-Glucopyranoside]    87.9
C=C(C)[C@@H]1CC[C@]2(C)CC[C@]3(C)[C@H](CC[C@@H]4[C@@]5(C)CC[C@H](O)C(C)(C)[C@@H]5CC[C@]43C)[C@@H]12    77.9
O=c1cc(-c2ccccc2)oc2cc(O)cc(O)c12 [Compound 9, 5,7-Dihydroxyflavone]    81.2
CC[C@H](CC[C@@H](C)[C@H]1CC[C@H]2[C@@H]3CC=C4C[C@@H](O)CC[C@]4(C)[C@H]3CC[C@]12C)C(C)C    80

Ask: What value of inhibition at 62.5 µg/mL has been reported for the following compound? COc1ccc(C(CO)OC)cc1OC (centres unmarked)
Result: 89.7

Ask: Try the compound C=C(C)[C@@H]1CC[C@]2(C(=O)O)CC[C@]3(C)[C@H](CC[C@@H]4[C@@]5(C)CC[C@H](O)C(C)(C)[C@@H]5CC[C@]43C)[C@@H]12 [Compound 7, 3β-Dihydroxylup-20(29)-ene-28-oic Acid]
Result: 77.7

Ask: Consider next the compound COc1cc(C(=O)CCO)ccc1O in the same way.
Result: 83.7

----------
molecular target: BChE (Homo sapiens, UniProt P06276); experiment: biochemical; details: read-out: BChE IC50 (μM ± SEM)
Sequence (P06276 29-602): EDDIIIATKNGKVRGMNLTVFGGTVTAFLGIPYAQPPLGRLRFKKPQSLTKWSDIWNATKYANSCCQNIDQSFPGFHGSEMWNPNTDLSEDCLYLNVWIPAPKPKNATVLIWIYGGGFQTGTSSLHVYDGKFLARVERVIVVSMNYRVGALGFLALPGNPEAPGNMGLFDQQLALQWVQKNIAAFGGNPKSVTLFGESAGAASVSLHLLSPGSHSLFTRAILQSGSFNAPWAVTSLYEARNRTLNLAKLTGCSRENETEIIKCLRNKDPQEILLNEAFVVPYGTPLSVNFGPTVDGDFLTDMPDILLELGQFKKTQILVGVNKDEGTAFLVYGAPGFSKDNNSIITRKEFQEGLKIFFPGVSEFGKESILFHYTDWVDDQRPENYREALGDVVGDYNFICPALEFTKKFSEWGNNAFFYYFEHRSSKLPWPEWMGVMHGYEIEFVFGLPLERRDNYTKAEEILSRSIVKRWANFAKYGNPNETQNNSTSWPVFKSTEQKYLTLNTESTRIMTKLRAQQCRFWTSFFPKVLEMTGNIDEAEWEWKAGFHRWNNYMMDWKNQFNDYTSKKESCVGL
Labelling field: enter class 1 if recorded IC50 is less than 3 µM. Enter class 0 if it equals or exceeds that cut-off.

C=C(C)[C@@H]1CC[C@]2(C)CC[C@]3(C)[C@H](CC[C@@H]4[C@@]5(C)CC[C@H](O)C(C)(C)[C@@H]5CC[C@]43C)[C@@H]12    class 1
CCC(CCC(C)C1CCC2C3CC=C4CC(OC5OC(CO)C(O)C(O)C5O)CCC4(C)C3CCC12C)C(C)C [Compound 3, β-Sitosterol-3-O-β-D-Glucopyranoside]    class 0
C=C(C)[C@@H]1CC[C@]2(CO)CC[C@]3(C)[C@H](CC[C@@H]4[C@@]5(C)CC[C@H](O)C(C)(C)[C@@H]5CC[C@]43C)[C@@H]12 [Compound 6, 3β, 28-Dihydroxylup-20(29)-ene]    class 0
C=C(C)[C@@H]1CC[C@]2(C(=O)O)CC[C@]3(C)[C@H](CC[C@@H]4[C@@]5(C)CC[C@H](O)C(C)(C)[C@@H]5CC[C@]43C)[C@@H]12 [Compound 7, 3β-Dihydroxylup-20(29)-ene-28-oic Acid]    class 0
COc1ccc(C(CO)OC)cc1OC (stereo not shown)    class 1

Ask: Hello, is IC50 of the following compound strictly smaller than 3 µM? COc1cc(C(=O)CCO)ccc1O
Result: class 0

Ask: Would you mind doing O=c1cc(-c2ccccc2)oc2cc(O)cc(O)c12 [Compound 9, 5,7-Dihydroxyflavone] as well?
Result: class 1
